assay: binders of probe aFSTL3 on microarray, primary screen, stem cell growth factor project, biochemical, small-molecule microarray, fluorescence 635/667 (AID 1064); conditions: higher = more signal;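 further: measures binding of the biotinylated anti-FSTL3 antibody to printed compounds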
Could you please classify the records by composite z-score using these ranges: bin 1 (below -0.6), bin 2 (-0.6 to below -0.3), bin 3 (-0.3 or more)

1) CCN1C(=O)[C@H]2[C@H]3[C@H](O)[C@H](O)CC(=NOCC(C)C)[C@H]3CC[C@H]2C1=O | bin 1
2) COc1ccc(O[C@H]2C=C[C@@H](c3ccccc3)O[C@@H]2CON=C2c3cc(OC)ccc3O[C@H](c3cccc(OC)c3)[C@H]2O)cc1 | bin 1
3) CC(C)[C@@H](OCc1ccccc1)[C@H](C)C=NO[C@@H](C)c1cn([C@H](CO)Cc2ccccc2)nn1 | bin 2
4) C[C@@H](c1ccccc1)N1C(=O)[C@H]2[C@H]3[C@H](O)[C@H](O)CC(=NOCc4ccccc4)[C@@H]3CC[C@H]2C1=O | bin 3
5) O=C1[C@H]2[C@H]3[C@H](O)[C@H](O)CC(=NOC[C@@H](O)COCc4ccco4)[C@@H]3CC[C@H]2C(=O)N1Cc1ccccc1 | bin 1
6) CO[C@H]1COC(=O)[C@H](C)COC(=O)[C@H](C)NC(=O)CC=C[C@H]1C | bin 1
7) O=C1C=C[C@@H](O)[C@@H]2[C@@H]3C(=O)N(Cc4ccc5c(c4)OCO5)C(=O)[C@@H]3CC[C@@H]12 | bin 1
8) CCN1C(=O)[C@H]2[C@H]3[C@H](O)[C@H](O)CC(=NNC(=O)OCc4ccccc4)[C@@H]3CC[C@H]2C1=O | bin 3
9) O=C1[C@H]2[C@H]3[C@H](O)[C@H](O)CC(=NOC[C@@H](O)COCc4ccco4)[C@@H]3CC[C@H]2C(=O)N1C1CCCCC1 | bin 1
10) CC(CCN1CCCc2nc(C)c(C)cc21)=NOC[C@@H](C)[C@H](OCc1ccccc1)C(C)C | bin 3
11) COC(OC)[C@@H](C)[C@H](OC)[C@@H](C)[C@H](OC)c1ccccc1 | bin 2
12) O=C1C[C@@H](O)[C@@H](O)[C@@H]2[C@@H]3C(=O)N(C4CCCCC4)C(=O)[C@@H]3CC[C@@H]12 | bin 2
13) CC(C)CON=C1C[C@@H](O)[C@@H](O)[C@@H]2[C@@H]3C(=O)N(Cc4ccc5c(c4)OCO5)C(=O)[C@@H]3CC[C@@H]12 | bin 2
14) CCOC(=O)CCN1C(=O)[C@H]2[C@H]3[C@H](O)[C@H](O)CC(=NOCC=C(C)CCC=C(C)C)[C@@H]3CC[C@H]2C1=O | bin 3
15) CC(=O)OC[C@H]1O[C@@H](ON=C2[C@H]3CCn4c(=O)n(-c5ccccc5)c(=O)n4[C@H]3[C@H](O)[C@@H]3O[C@H]23)[C@H](OC(C)=O)[C@@H](OC(C)=O)[C@@H]1OC(C)=O | bin 2
16) COC(=O)CC=C[C@@H](C)[C@@H](C=NOC(C)CN1CCCc2nc(C)c(C)cc21)NS(=O)(=O)c1ccc(C)cc1 (stereo partly drawn) | bin 3
17) C[C@@H]1CC[C@H]2C(=O)O[C@@H](CN=[N+]=[N-])CN2[C@H]1c1ccc(Br)cc1 | bin 3
18) CCN1C(=O)[C@H]2[C@H]3[C@H](O)[C@H](O)CC(=NOC[C@@H](O)COCc4ccco4)[C@H]3CC[C@H]2C1=O | bin 1
19) CCOC(=O)[C@H](Cc1ccccc1)NC(=O)CCC1CC(OC(=O)NCCc2ccc(F)cc2)CC2(CCCC(COC(=O)NCc3cccc(C(F)(F)F)c3)O2)O1 (stereo partly drawn) | bin 2
20) CCOC(=O)CCN1C(=O)[C@H]2[C@H]3[C@H](O)[C@H](O)CC(=NNC(=O)OCc4ccc(OC)cc4)[C@H]3CC[C@H]2C1=O | bin 2
21) COc1ccc(O[C@H]2C=C[C@@H](c3ccccc3)O[C@@H]2COC(=O)NCc2cccc3ccccc23)cc1 | bin 3
22) COC(=O)[C@H](C)NC(=O)CCC1CC(OC(=O)NCc2cccc3ccccc23)CC2(CCCC(COC(=O)NCCC(C)C)O2)O1 (stereo partly drawn) | bin 2
23) COC(=O)[C@H](C)NC(=O)CCC1CC(OC(=O)NCCc2ccc(F)cc2)CC2(CCCC(COC(=O)NCc3ccccc3)O2)O1 (stereo partly drawn) | bin 1
24) CC(=O)OC[C@H]1O[C@H](CCON=C(C)C)C=C[C@@H]1OC(C)=O | bin 1
25) O=C1[C@H]2[C@H]3[C@H](O)[C@H](O)CC(=NOC[C@@H](O)COCc4ccco4)[C@@H]3CC[C@H]2C(=O)N1Cc1ccc2c(c1)OCO2 | bin 1

====

assay: small-molecule microarray binders of probe aShh, primary screen, biochemical, biotinylated probe, 635/667 nm fluorescence (AID 1114); conditions: higher = more signal;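 further: probe is biotin-labelled aShh protein from a stem cell growth factor screen; measures binding of labelled protein to compounds printed on the slide; score merges feature fluorescence at 667 nm with signal-to-noise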
Would you please tag the item 1 (yes) when its composite z-score is -0.07 or above, and 0 (no) when it is below?

1. O=C(NN=C1C[C@@H](O)[C@@H](O)[C@@H]2[C@@H]3C(=O)N(Cc4ccccc4)C(=O)[C@@H]3CC[C@H]12)OCc1ccccc1 | 0 (no)
2. CO[C@H]1COC(=O)[C@H](CCSC)NC(=O)CC=C[C@@H](C)[C@H](OC)COC(=O)[C@@H](OCc2ccccc2)C=C[C@@H]1C | 0 (no)
3. O=C1C2=CC[C@H]3C(=O)N(C[C@@H]4CCCO4)C(=O)[C@H]3[C@H]2[C@H](O)[C@@H]2O[C@H]12 | 1 (yes)
4. CC(=O)OC[C@H]1O[C@@H](ON=C(C)C)[C@H](OC(C)=O)[C@@H](OC(C)=O)[C@@H]1OC(C)=O | 0 (no)
5. CC(C)[C@H](NC(=O)OC(C)(C)C)[C@@H](O)CC(=O)C(C)(C)C | 0 (no)
6. CCN1C(=O)[C@H]2[C@H]3[C@H](O)[C@H](O)CC(=NO[C@@H](C)c4cc(-c5c(C)cc(C)cc5C)no4)[C@@H]3CC[C@H]2C1=O | 1 (yes)
7. COCOc1ccc(Br)cc1C(=O)C=Cc1ccc2c(c1)OCO2 | 0 (no)
8. COC(=O)[C@H](C)NC(=O)CCC1CC(OC(=O)NCCc2ccc(F)cc2)CC2(CCCC(COC(=O)NCc3ccccc3)O2)O1 (some centres not stated) | 0 (no)
9. CON=C(C)CCN1CCCCc2nc(C)c(C)cc21 | 0 (no)
10. CC1(C)O[C@H]2OC([C@H](O)CON3C(=O)c4ccccc4C3=O)[C@H](O)[C@H]2O1 (some centres not stated) | 0 (no)
11. C#CCCCON=C1C[C@@H](O)[C@@H](O)[C@@H]2[C@@H]3C(=O)N([C@@H](C)c4ccccc4)C(=O)[C@@H]3CC[C@@H]12 | 1 (yes)

====

test: FRG1 promoter luciferase signal modulators, primary screen, FRG1 inhibition for FSHD, cell-based, C2C12 myotubes, firefly/Renilla luciferase, luminescence (AID 1084); details: higher = more signal, called active from +8 up or from −8 down
quantity-name: z-score

1) O=C1[C@H]2[C@H]3[C@H](O)[C@H](O)CC(=NOC[C@@H](O)COCc4ccco4)[C@@H]3CC[C@H]2C(=O)N1Cc1ccccc1 | 0.668
2) CC(C)CON=C1C[C@@H](O)[C@@H](O)[C@@H]2[C@@H]3C(=O)N(Cc4ccc5c(c4)OCO5)C(=O)[C@@H]3CC[C@@H]12 | -0.197
3) CC(=O)OC[C@H]1O[C@H](CC=NO[C@@H](C)c2cn([C@H](CO)Cc3ccccc3)nn2)C=C[C@@H]1OC(C)=O | 0.386
4) CC(C)[C@@H](OCc1ccccc1)[C@H](C)C=NO[C@@H](C)c1cn([C@H](CO)Cc2ccccc2)nn1 | 0.193
5) COc1ccc(COC(=O)NN=C2C[C@@H](O)[C@@H](O)[C@@H]3[C@@H]4C(=O)N(c5cccc(Oc6ccccc6)c5)C(=O)[C@@H]4CC[C@H]23)cc1 | 0.632
6) Cc1ccc2[nH]c3nc(CCCn4ccnc4-c4ccccc4)nnc3c2c1 | 0.921

====

test system: Noggin (protein binding on small-molecule microarray); test: Noggin binders on small-molecule microarray, primary screen, biochemical, 635/667 nm fluorescence (AID 1095); details: 635 nm fluorescence, higher = more signal;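 further: score merges 667 nm feature fluorescence with signal to noise over triplicate slides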
Values of composite z-score greater than or equal to 0.8 map to Satisfied; values below map to Not satisfied.

1. CC(C)[C@H](NC(=O)OC(C)(C)C)[C@@H](O)CC(=O)C(C)(C)C | Satisfied
2. CC(C)C(=O)N[C@H]1CCCN1C(=O)C=Cc1ccccc1 | Satisfied
3. COC(=O)CC=C[C@@H](C)[C@@H](C=NOC[C@@H](O)COCc1ccco1)NS(=O)(=O)c1ccc(C)cc1 | Not satisfied
4. Cc1cc(C)c(-c2cc([C@H](C)ON=C[C@@H](C)[C@H](OCc3ccccc3)C(C)C)on2)c(C)c1 | Not satisfied
5. CCOC(=O)[C@H](Cc1ccccc1)NC(=O)CCC1CC(OC(=O)NCc2cccc3ccccc23)CC2(CCCC(COC(=O)NCC3CCCCC3)O2)O1 (stereo not given in full) | Satisfied
6. CCOC(=O)CCN1C(=O)[C@H]2[C@H]3[C@H](O)[C@H](O)CC(=NNC(=O)OCc4ccc(OC)cc4)[C@H]3CC[C@H]2C1=O | Not satisfied
7. CO[C@H]1COC(=O)CCC[C@H](C)[C@@H](OC)COC(=O)CC=C[C@@H]1C | Not satisfied
8. CCCNC(=O)OC[C@H]1O[C@H](CCON=C2c3cc(OC)ccc3O[C@H](c3cccc(OC)c3)[C@H]2O)C=C[C@@H]1Oc1ccc(OC)cc1 | Not satisfied
9. COC(=O)[C@H](C)NC(=O)CCC1CC(OC(=O)NCc2cccc3ccccc23)CC2(CCCC(COC(=O)NCCc3ccccc3OC)O2)O1 (stereo not given in full) | Satisfied
10. CCN1C(=O)[C@H]2[C@H]3[C@H](O)[C@H](O)CC(=NOC[C@@H](O)COCc4ccco4)[C@H]3CC[C@H]2C1=O | Satisfied
11. O=C1[C@H]2[C@H]3[C@H](O)[C@H](O)CC(=NOC[C@@H](O)COCc4ccco4)[C@@H]3CC[C@H]2C(=O)N1Cc1ccccc1 | Satisfied
12. CC(C)=CCCC(C)=CCON=C1C[C@@H](O)[C@@H](O)[C@@H]2[C@@H]3C(=O)N(Cc4ccc5c(c4)OCO5)C(=O)[C@@H]3CC[C@H]12 | Not satisfied
13. COC(=O)CC=C[C@@H](C)[C@@H](C=NOC[C@@H](O)COCc1ccco1)OC | Satisfied
14. CCOC(=O)[C@H](Cc1ccccc1)NC(=O)CCC1CC(OC(=O)NCc2cccc3ccccc23)CC2(CCCC(COC(=O)NCCOc3ccccc3)O2)O1 (stereo not given in full) | Not satisfied
15. CC(C)=NO[C@H](C)c1cn([C@@H]2COC[C@H]2O)nn1 | Not satisfied
16. COC(=O)CC=C[C@@H](C)[C@@H](C=NOC[C@@H](C)[C@H](OCc1ccccc1)C(C)C)OC | Not satisfied
17. CC1(C)O[C@H]2O[C@H]([C@H](O)CON=C3[C@H]4CCn5c(=O)n(-c6ccccc6)c(=O)n5[C@H]4[C@H](O)[C@@H]4O[C@H]34)[C@H](O)[C@H]2O1 | Not satisfied
18. C#CCCCON=C1C[C@@H](O)[C@@H](O)[C@@H]2[C@@H]3C(=O)N(C[C@@H]4CCCO4)C(=O)[C@@H]3CC[C@H]12 | Not satisfied
19. CCN1C(=O)[C@H]2[C@H]3[C@H](O)[C@H](O)CC(=NO[C@@H]4O[C@H](CO)[C@@H](O)[C@H](O)[C@H]4O)[C@H]3CC[C@H]2C1=O | Not satisfied
